Entries annotated with measured melting point

COc1ccc2c(c1OC)CCC1CNC(=O)C21 (stereo not given) ... 185 to 187 °C
O=C1O[C@@H]2C[C@@]1(O)c1cc(-c3ccccc3)sc1[C@H]2O ... 168 to 173 °C
CCCCc1nc2c(N)nc3ccccc3c2n1CCCCCCCCNC(=O)c1ccccc1 ... 150 to 151 °C

QUERY: Any idea what its melting point is? The compound is `COC(=O)c1oc(C(C)(C)C)cc1N`
RESULT: 91 to 92 °C

QUERY: Can you look up the measured melting point of `COc1ccc2ccc3nc(C(=O)Nc4nnn[nH]4)cn3c2c1` for me?
RESULT: 298 to 301 °C

QUERY: Endpoint output: melting point of `COc1cc2c3ccc(OC)c(OC)c3n(S(=O)(=O)c3ccc([N+](=O)[O-])cc3)c2cc1OC` . Value?
RESULT: 188 to 189 °C

QUERY: Any idea what melting point was measured for CCC(=CC(CNC(=O)c1cccnc1Cl)=NO)C(C)[N+](=O)[O-] (stereo not given) ?
RESULT: 131 to 136 °C

QUERY: Consider the compound shown here: `Clc1ccc2c(c1)C(c1ccccc1Cl)=NCc1n[nH]cc1-2` What is its recorded melting point?
RESULT: 142 to 144 °C

QUERY: Give its melting point value. Item: `Cc1c(-c2ccccc2)oc2c(C(=O)OCCCBr)cccc2c1=O`
RESULT: 114 to 115 °C

QUERY: Endpoint output: melting point of `CC#CN(C)c1nc2ccccc2s1` . Value?
RESULT: 58 to 59 °C

###

ENDPOINT_LABEL: melting point

Illustrative cases are given below, each with its answer.
O=C1C(=O)c2ccccc2C2=C1SCC1(CCN(C(=O)CSc3ccccc3)CC1)O2 ... 155 to 157 °C
COC(=O)C(=O)Nc1ccccc1C(C)(C)C ... 61.7 to 63.6 °C

QUERY: Item under review: `CNC(=O)c1cc(C(=O)c2ccccc2)ccc1N` . Reported melting point?
RESULT: 140 °C

QUERY: # get_value(readout='melting point', item= `O=C(O)c1oc2ccc(Cl)cc2c1-c1ccccc1C(F)(F)F` )
RESULT: 71 to 72 °C

QUERY: Name the recorded melting point for `CCCCCCCCCCCCCCCC(=O)Oc1c(F)c(F)c(F)c(F)c1F` .
RESULT: 42 to 44 °C

QUERY: Could you share which melting point value was measured for `CC(C)(C)OC(=O)N1C(=O)[C@H](O)[C@@H]1c1ccccc1` ?
RESULT: 132 °C

QUERY: Form field: reported melting point of Cc1cc(C(Cc2ccc(CCCc3nc(-c4ccccc4)oc3C)cc2)C(=O)O)no1 (stereo not given)
RESULT: 75 to 80 °C

QUERY: Fill blank: measured melting point of the molecule `CN(C)C(=O)Oc1ccc(CO)cc1` is ____.
RESULT: 76 °C

QUERY: # query: melting point of entry OC(COc1ccccc1)c1ccccc1 (stereo not given)
RESULT: 61 to 62 °C

QUERY: Query (molecule): `COc1ccc2c(C3=C(c4cn(C)c5cc(OC)ccc45)C(=O)NC3=O)cn(C)c2c1` ; field requested: melting point
RESULT: 257 to 258 °C

###

Entries and their melting point values follow.

Answered cases to consult:
CCCC(=O)Nc1cnc2cc(F)ccc2c1O ... 306 to 308 °C
Cc1nnc2n1-c1sccc1C(c1ccccc1Cl)=NC2 ... 221 to 223 °C
O=C(Cl)N1CC(Oc2cccc(C(F)(F)F)c2)C1 ... 72.5 to 74 °C
COC(=O)C=CC=CCSc1ccc2ccccc2c1 ... 73 to 75 °C

QUERY: Looking for the measured melting point of COC(=S)NN=C1C(=O)Nc2ccc(C3=NNC(=O)SC3C)cc21 (stereo not drawn) , can you help?
RESULT: 245 °C

QUERY: Give the measured melting point of `CCC(=O)c1cnc(C(=O)C(C)C)cn1` .
RESULT: 70 to 71 °C

QUERY: Can you share its melting point? I mean this compound: `COc1ccc(NC(=O)/C(C)=C/c2ccc(C(F)(F)F)cc2)c(C(=O)O)c1`
RESULT: 207 to 208 °C

QUERY: Param item = `COC(=O)NNc1ccccc1OCCSC` ; retrieve measured melting point.
RESULT: 92 to 94 °C

QUERY: # input compound: `O=C(CN1C(=O)c2ccccc2C1=O)Nc1ccccc1Cl` ; wanted: its melting point
RESULT: 250 °C

QUERY: Which melting point reading was recorded for the compound C=CC1CC1(C(C)=O)C(=O)Nc1ccccc1 (stereo not drawn) ?
RESULT: 104 to 105 °C

QUERY: Return reported melting point; argument: `CSc1ccc2c(c1)C(=O)C(C)(C)C(=O)N2`
RESULT: 152 °C

QUERY: Query (compound): CN(C)C1CCC(Nc2nc3cc(Cl)c(Cl)cc3nc2-c2ccncc2)CC1 (stereo not drawn) ; field requested: melting point
RESULT: 183 to 185 °C

QUERY: Which melting point is listed for OC(CN1CCNC1=S)c1ccc(Cl)cc1 (stereo not drawn) ?
RESULT: 153 °C
